All figures here come from paper PMC9482650.

- Target Under Test: NHERF4_4, Q86UT5
- Sequence (Q86UT5 464-550): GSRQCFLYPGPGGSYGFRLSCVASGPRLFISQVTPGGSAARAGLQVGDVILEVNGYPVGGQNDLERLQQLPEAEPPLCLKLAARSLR
- Test: holdup assay
- Set-up: key: below the threshold = too weak to quantify, mostly under pKd 3.1 to 4
- Reported Conditions: plain residues with an end cap or a label only (N-terminal biotin on a linker: ado-ado)
Assay Readout: pKd

Guide cases for pKd, answers given:
# Binder, pKd
measured = [
    ("GSGAVEMESV [AQP6, Q13520]", "below the threshold"),
    ("PDGQCTVTEV [RNF146, Q9NTX7]", 4.02),
    ("RRISSLESEV [GRIN2C, Q14957]", "below the threshold"),
    ("PEYLGLDVPV [ERBB2, P04626]", "below the threshold"),
    ("SAAKVLTSMC [GHRHR, Q02643]", "below the threshold"),
]

Need pKd, item QHKTQLQTLI [BPIFA2, Q96DR5] below the threshold

Need pKd, item YRLAQESGLV [ABCC6, O95255] below the threshold

Need pKd, item PRAEAEDSFL [PDGFRB, P09619] 4.03
